biological target: GABA-A receptor; anion channel; assay: Activation of chloride ion uptake into mouse brain synaptoneurosomes, no net uptake at […]; type: functional
Recorded Metric: EC50

| Chemical Structure | Target Under Test | Recorded Metric | Observed |
| --- | --- | --- | --- |
| NCCCC(=O)NCCNCC(=O)O | GABA-A receptor; anion channel | EC50 | > 4 mM |

The record that follows has no EC50 shown yet.
Indicate its recorded EC50; the compound in question is NCCCC(=O)NCCN
> 4 mM

---

target: GABA-A receptor; anion channel; test: Activation of chloride ion uptake into mouse brain synaptoneurosomes; type: functional
Recorded Metric: EC50 (µM)

| Chemical Structure | EC50 (µM) |
| --- | --- |
| Oc1noc2c1CCNC2 | 335 |
| CC(=O)NCCCCNC(=O)CCCN | 414 |
| CCCCNC(=O)CCCN | 340 |

(1) NCCCC(=O)NCCCCNC(=O)CCCN
(2) NCCCC(N)=O
(3) NCCCCNC(=O)CCCN
(4) NCCCC(=O)NCCNC(=O)CCCN
Ascending by EC50, please. Answer by naming the labels in the order asked.
2, 1, 4, 3
